assay target: Vhr1 (UniProt P40522)
Sequence: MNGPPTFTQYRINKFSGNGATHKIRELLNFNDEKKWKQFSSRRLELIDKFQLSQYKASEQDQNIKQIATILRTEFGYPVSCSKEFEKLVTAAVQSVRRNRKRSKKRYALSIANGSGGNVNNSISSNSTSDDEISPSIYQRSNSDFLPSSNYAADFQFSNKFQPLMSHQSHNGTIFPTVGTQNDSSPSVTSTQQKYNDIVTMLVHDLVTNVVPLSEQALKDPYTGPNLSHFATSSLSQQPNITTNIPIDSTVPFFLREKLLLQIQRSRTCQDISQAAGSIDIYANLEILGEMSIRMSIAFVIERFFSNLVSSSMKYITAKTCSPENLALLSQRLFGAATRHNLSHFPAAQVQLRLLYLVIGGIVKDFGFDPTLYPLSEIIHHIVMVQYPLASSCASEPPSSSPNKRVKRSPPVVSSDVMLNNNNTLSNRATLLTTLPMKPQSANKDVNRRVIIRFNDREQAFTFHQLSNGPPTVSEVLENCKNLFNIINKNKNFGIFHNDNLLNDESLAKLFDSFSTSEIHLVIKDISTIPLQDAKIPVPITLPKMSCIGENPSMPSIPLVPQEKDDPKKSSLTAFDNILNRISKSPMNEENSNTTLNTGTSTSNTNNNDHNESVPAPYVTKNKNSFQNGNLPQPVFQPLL
assay name: PBM E-score (8-mer binding enrichment) (E-score (-0.5 to 0.5)); higher = stronger / more preferred TF binding
setup conditions: protein concentration: 200 nM; construct: GST-full length
The full ranking holds about 33,000 sequences; the median of “E-score (-0.5 to 0.5)” is about -0.012, and the highest 2% start at about 0.27. The sample holds the highest values, similar sequences and a random draw of the others, so the mix is not that of the screen.
# key: entry, value: PBM E-score
I only need the number, thanks.

Some sequences with recorded PBM E-score:
1) CGAAAGCA = -0.046
2) GCGAATCC = 0.0147
3) ATCAGCTA = 0.0387
4) CCTTGAGA = -0.0758
5) GCGTCAGC = -0.256

# input sequence: TCGAATCA ; wanted: its PBM E-score
# output 0.253

# input sequence: CGCGGCTC ; wanted: its PBM E-score
# output 0.278

# input sequence: CGTACTCC ; wanted: its PBM E-score
# output -0.0124

# input sequence: GAGTCAGC ; wanted: its PBM E-score
# output 0.476

# input sequence: CCAATTCC ; wanted: its PBM E-score
# output -0.0792

# input sequence: AAGTAGAC ; wanted: its PBM E-score
# output -0.0556

# input sequence: CGAGAGCG ; wanted: its PBM E-score
# output -0.118

# input sequence: GGGTCAGA ; wanted: its PBM E-score
# output -0.0746

# input sequence: GAATTTGC ; wanted: its PBM E-score
# output -0.0954

# input sequence: CTCCATCC ; wanted: its PBM E-score
# output -0.162

# input sequence: AGCGGCTC ; wanted: its PBM E-score
# output -0.0971

# input sequence: GAGTCAGA ; wanted: its PBM E-score
# output 0.447
